TEST SUMMARY: Inhibition of human recombinant FBPase using fructose-1,6-biphosphate as substrate incubated for 3 mins prior to substrate addition by spectrophotometric analysis
PROPERTY NAME: IC50 (nM)

- CCOc1cc2nc(CCN)nc(Nc3cccc(-c4csc(C)n4)c3)c2cc1OCC: 220
- CCCc1nc(Nc2cccc(-c3csc(C)n3)c2)c2cc(OCC)c(OCC)cc2n1: 1400
- CCOc1cc2ncnc(Nc3cccc(-c4csc(C5CC5)n4)c3)c2cc1OCC: 830
- CCOc1cc2ncnc(Nc3cccc(-c4csc(C(N)=O)n4)c3)c2cc1OCC: 930

###

Species on record: Homo sapiens
TEST SUMMARY: Inhibition of human recombinant FBPase using fructose-1,6-biphosphate as substrate at 10 uM incubated for 3 mins prior to substrate addition by spectrophotometric analysis
Activity calls are given as the source filed them. No cut-off for these calls is given here.
PROPERTY NAME: inhibition

• O=C1NC(=O)C2N=C(CNc3ccc(C(=O)O)cc3)NC2N1 (stereo unspecified) = inactive
• C[N+](C)(CCCCOc1c(Br)cc(Br)cc1Br)Cc1ccc([N+](=O)[O-])o1 = 100%
• CC1(C)N=C(N)N=C(N)N1c1cccc(OCCOc2ccccc2[N+](=O)[O-])c1 = 100%
• O=S(=O)(O)c1ccccc1/C=N/N=C/c1ccccc1S(=O)(=O)O = 100%
• COc1cc(C2=N/C(=C\c3cccc(O)c3O)C(=O)O2)cc(OC)c1OC = inactive
• COc1cc(/C=C/Cc2c(O)ccc3c2OCO3)cc(OC)c1OC = inactive

###

TEST SUMMARY: Inhibition of human recombinant FBPase using fructose-1,6-biphosphate as substrate incubated for 3 mins prior to substrate addition by spectrophotometric analysis
PROPERTY NAME: IC50 (nM)

- CCOc1cc2ncnc(Nc3cc(-c4csc(C)n4)ccc3CC)c2cc1OCC: 2100
- CCOc1cc2ncnc(Nc3cccc(Br)c3)c2cc1OCC: 1700
- CCOc1cc2ncnc(Nc3cccc(-c4cc[nH]n4)c3)c2cc1OCC: 730
- CCCOc1cc2ncnc(Nc3cccc(-c4csc(C)n4)c3)c2cc1OCC: 1000
- CCOc1cc2nc(CC(=O)O)nc(Nc3cccc(-c4csc(C)n4)c3)c2cc1OCC: 960

###

TEST SUMMARY: Inhibition of human recombinant FBPase using fructose-1,6-biphosphate as substrate incubated for 3 mins prior to substrate addition by spectrophotometric analysis
pIC50: −log10 of the molar value.
PROPERTY NAME: pIC50

• C[N+](C)(CCCCOc1c(Br)cc(Br)cc1Br)Cc1ccc([N+](=O)[O-])o1 = 6.15
• CCOc1cc2ncnc(Nc3cc(-c4csc(C)n4)ccc3F)c2cc1OCC = 6.32
• COC(=O)CCc1c(C(=O)O)[nH]c2cc(Cl)cc(Cl)c12 = 5.15
• COc1cc2nc(C)nc(Nc3cccc(Br)c3)c2cc1OC = 5.35
• CCOc1cc2ncnc(Nc3cccc(-c4ccccn4)c3)c2cc1OCC = 6.41
• COc1cc2c(Nc3cccc(-c4csc(C)n4)c3)ncnc2cc1OC(C)(C)C = 5.89
• CCOc1cc2nc(CC(C)C)nc(Nc3cccc(-c4csc(C)n4)c3)c2cc1OCC = 5.77
• CCOc1cc2ncnc(Nc3cc(-c4csc(C)n4)ccc3OC)c2cc1OCC = 6.00
• CCOc1cc2ncnc(Nc3cccc(-c4nc(C)cs4)c3)c2cc1OCC = 6.19
• COCCOc1cc2c(Nc3cccc(Br)c3)ncnc2cc1OC = 5.26
• O=C(OCc1ccc([N+](=O)[O-])cc1)c1ccccc1[N+](=O)[O-] = 5.78
• CC1(C)C2CCC1(C)C(OCCC/N=C(\N)CSS(=O)(=O)O)C2 (configuration not stated) = 5.42
• CN(C)C(=O)CCc1c(C(=O)O)[nH]c2cc(Cl)cc(Cl)c12 = 5.77
• COc1cc(-c2ccc(OC)nc2)c2oc(NS(=O)(=O)c3cc(Cl)ccc3Cl)nc2c1 = 5.46
• CCOc1cc2ncnc(Nc3cc(-c4csc(C)n4)ccc3Cl)c2cc1OCC = 5.77
